Hello, the source for this data is patent US11667645B2, in case you need it.

# target: Granzyme B (human lymphocytes) (Homo sapiens (Human), UniProt P10144)
# Sequence (P10144 21-247): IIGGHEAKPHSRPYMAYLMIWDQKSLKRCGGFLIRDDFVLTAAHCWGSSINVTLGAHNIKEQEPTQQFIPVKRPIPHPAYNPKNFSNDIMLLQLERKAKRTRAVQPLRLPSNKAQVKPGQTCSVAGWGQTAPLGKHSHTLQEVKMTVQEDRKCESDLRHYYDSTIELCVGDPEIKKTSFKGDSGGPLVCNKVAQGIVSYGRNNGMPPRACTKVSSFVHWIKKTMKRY
# assay: human Granzyme B biochemical assay
# condition description: Granzyme B (human lymphocytes) 5 nM, substrate Ac-IETD-AFC 200 μM, Cpd incubation with enzyme 30 mins, 22° C., read time 60 mins; read-out: IC50
pIC50: −log10 of the molar value.
Provide the recorded pIC50 for the entries that follow.

Notebook: pull reported pIC50 for Granzyme B (human lymphocytes) (Homo sapiens (Human), UniProt P10144), entry O=C(N[C@H](C(=O)N[C@H]1CCc2cccc3c2N(C1=O)[C@H](C(=O)NCc1c[nH]nn1)C3)C1CC1)c1ccccc1 [Compound C082]
6.00 to 6.52

Notebook: pull reported pIC50 for Granzyme B (human lymphocytes) (Homo sapiens (Human), UniProt P10144), entry CC[C@H](C)[C@H](NC(=O)COCCF)C(=O)N[C@H]1CCc2cccc3c2N(C1=O)[C@H](C(=O)NCc1ccc(C)cc1)C3 [Compound C129]
< 5.30

Notebook: pull reported pIC50 for Granzyme B (human lymphocytes) (Homo sapiens (Human), UniProt P10144), entry CC(C)[C@H](NC(=O)c1cccc(F)c1)C(=O)N[C@H]1CCc2cccc3c2N(C1=O)[C@H](C(=O)NCc1c[nH]nn1)C3 [Compound C048]
6.52 to 9.00

Notebook: pull reported pIC50 for Granzyme B (human lymphocytes) (Homo sapiens (Human), UniProt P10144), entry CC(=O)N[C@H](C(=O)N[C@H]1CCc2cccc3c2N(C1=O)[C@H](C(=O)NCc1c[nH]nn1)C3)C1CC1 [Compound C081]
6.00 to 6.52

Notebook: pull reported pIC50 for Granzyme B (human lymphocytes) (Homo sapiens (Human), UniProt P10144), entry O=C(Cc1ccccc1)N[C@@H](Cc1ccccc1)C(=O)N[C@H]1CCc2cccc3c2N(C1=O)[C@H](C(=O)NCc1c[nH]nn1)C3 [Compound C015]
5.30 to 6.00

Notebook: pull reported pIC50 for Granzyme B (human lymphocytes) (Homo sapiens (Human), UniProt P10144), entry CC[C@H](C)[C@H](NC(=O)COCCF)C(=O)N[C@H]1CS(=O)(=O)c2cccc3c2N(C1=O)[C@H](C(=O)NCc1c[nH]nn1)C3 [Compound C172]
6.00 to 6.52

Notebook: pull reported pIC50 for Granzyme B (human lymphocytes) (Homo sapiens (Human), UniProt P10144), entry COC(=O)C[C@H](NC(=O)[C@@H]1Cc2cccc3c2N1C(=O)[C@@H](NC(=O)[C@@H](NC(C)=O)C(C)C)CC3)C(=O)OC [Compound C093]
< 5.30

Notebook: pull reported pIC50 for Granzyme B (human lymphocytes) (Homo sapiens (Human), UniProt P10144), entry CC[C@H](C)[C@H](NC(=O)COCCF)C(=O)N[C@H]1CCc2cccc3c2N(C1=O)[C@H](C(=O)NCc1cc(O)n[nH]1)C3 [Compound C166]
5.30 to 6.00

Notebook: pull reported pIC50 for Granzyme B (human lymphocytes) (Homo sapiens (Human), UniProt P10144), entry CC[C@H](C)[C@H](NC(=O)COCCF)C(=O)N[C@H]1COc2cccc3c2N(C1=O)[C@H](C(=O)NCc1c[nH]nn1)C3 [Compound C099]
6.52 to 9.00

Notebook: pull reported pIC50 for Granzyme B (human lymphocytes) (Homo sapiens (Human), UniProt P10144), entry CC[C@H](C)[C@H](NC(=O)COCCF)C(=O)N[C@H]1CCc2cccc3c2N(C1=O)[C@H](C(=O)NCc1ccn[nH]1)C3 [Compound C149]
< 5.30

Notebook: pull reported pIC50 for Granzyme B (human lymphocytes) (Homo sapiens (Human), UniProt P10144), entry CC(=O)N[C@H](C(=O)N[C@H]1CCc2cccc3c2N(C1=O)[C@H](C(=O)NCc1c[nH]nn1)C3)C1CCCC1 [Compound C077]
6.52 to 9.00
